- experimentalProtocol: chemical genetic growth profiling, strain panel (AID 1159580);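 also: tested at 20 µM; growth read once vehicle control cultures reached saturation at 30 °C; 1 = growth at the plate median or of vehicle wells; lower values mean less growth of the strain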
- setupConditions: S. cerevisiae deletion strains, growth OD, locus YER110C, stronger effect = lower value
Out of some 5,500 compounds screened, about 2,000 (36%) were called active. Inconclusive results (about 18%) are left out. This is one part of the list.
# normalized growth listing for each entry below
Could you keep your reply to the number by itself?

Consider the following illustrative entries.
[[record]]
compound = "O=C(O)/C=C/C=C/c1ccccc1"
metric = "normalized growth"
recordednumber = 0.887

[[record]]
compound = "CCOP(=S)(OCC)SCn1c(=O)oc2cc(Cl)ccc21"
metric = "normalized growth"
recordednumber = 0.993

[[record]]
compound = "O=C(O)c1ccccc1Nc1cccc(C(F)(F)F)c1"
metric = "normalized growth"
recordednumber = 1.01

[[record]]
compound = "O=C(O)CCCCC1CCSS1 (configuration not stated)"
metric = "normalized growth"
recordednumber = 0.961

[[record]]
compound = "Nc1ccc(C(=O)NCC(=O)O)cc1"
metric = "normalized growth"
recordednumber = 1.02


QUERY: Request the reported normalized growth associated with CN/C(=C\[N+](=O)[O-])NCCSCc1ccc(CN(C)C)o1
RESULT: 1

QUERY: Request the reported normalized growth associated with NCCNC(=O)c1ccc(Cl)cc1
RESULT: 0.959
